Assay: Pharmacokinetics of aconitine alkaloids in rat plasma after oral administration of Fuzi extract (d-SPE-LC-MS/MS)
Type: in vivo, Sprague–Dawley rats
Settings: male, Sprague-Dawley, n = 6, oral (gastric gavage) 10 mg/kg Fuzi extract, read-out: MRT0-t
Please note: MRT last exactly at 6 h is Criterion not met. Only values below 6 h get Criterion met.

Does the reported MRT last of COCC12CN(C)C3C4C(OC)C1C3(C(OC)CC2O)C1CC2(O)C(OC)C(O)C4(OC(C)=O)C1C2OC(=O)c1ccccc1 (centres unmarked) stay below 6 h?
Criterion met

Next molecule: COC[C@@]12CC[C@H](OC)[C@]34C(C([C@H](OC)[C@H]13)[C@]1(OC(C)=O)[C@H]3[C@@H](OC(=O)c5ccccc5)[C@](O)(C[C@H]34)[C@@H](OC)[C@@H]1O)N(C)C2
Criterion not met

Next molecule: CCN1CC2(OC(=O)c3ccccc3NC(C)=O)CCC(OC)C34C1C(CC23)C1(O)CC(OC)C2CC4C1(O)C2OC (centres unmarked)
Criterion met

Next molecule: CCN1CC2(COC)C(O)CC(OC)C34C5CC6(O)C(OC)C(O)C(O)(C5C6OC(=O)c5ccccc5)C(C(OC)C23)C14 (centres unmarked)
Criterion not met

Next molecule: CCN1C[C@]2(COC)[C@H](O)C[C@H](OC)[C@@]34[C@@H]5C[C@@]6(O)[C@H](OC(=O)c7ccccc7)[C@@H]5[C@@](OC(C)=O)([C@@H]([C@H](OC)[C@H]23)[C@@H]14)[C@@H](O)[C@@H]6OC
Criterion not met

---

Assay type: physicochemical, rat
Conditions: Automatic (24 h), plasma QC 6.25 ng/mL
endpoint_name: Stability RE % (%)
Only the number, expressed in %, is required.

GET /values?readout=Stability RE %&item= CCN1CC2(COC)C(O)CC(OC)C34C5CC6(O)C(OC)C(O)C(O)(C5C6OC(=O)c5ccccc5)C(C(OC)C23)C14 (stereo not shown)
−8.67

Next molecule: COCC12CN(C)C3C4C(OC)C1C3(C(OC)CC2O)C1CC2(O)C(OC)C(O)C4(OC(C)=O)C1C2OC(=O)c1ccccc1 (stereo not shown)
−9.09

Next molecule: COC[C@@]12CC[C@H](OC)[C@]34C(C([C@H](OC)[C@H]13)[C@]1(OC(C)=O)[C@H]3[C@@H](OC(=O)c5ccccc5)[C@](O)(C[C@H]34)[C@@H](OC)[C@@H]1O)N(C)C2
−8.00

Next molecule: CCN1C[C@]2(COC)[C@H](O)C[C@H](OC)[C@@]34[C@@H]5C[C@@]6(O)[C@H](OC(=O)c7ccccc7)[C@@H]5[C@@](OC(C)=O)([C@@H]([C@H](OC)[C@H]23)[C@@H]14)[C@@H](O)[C@@H]6OC
4.19

---

Assay type: physicochemical, rat
Details: Automatic (24 h), plasma QC 50 ng/mL
endpoint_name: Stability RE % (%)
Only the number, expressed in %, is required.

GET /values?readout=Stability RE %&item= CCN1C[C@]2(COC)[C@H](O)C[C@H](OC)[C@@]34[C@@H]5C[C@@]6(O)[C@H](OC(=O)c7ccccc7)[C@@H]5[C@@](OC(C)=O)([C@@H]([C@H](OC)[C@H]23)[C@@H]14)[C@@H](O)[C@@H]6OC [Aconitine]
−10.01

Next compound: CCN1CC2(COC)C(O)CC(OC)C34C5CC6(O)C(OC)C(O)C(O)(C5C6OC(=O)c5ccccc5)C(C(OC)C23)C14 (stereo not shown) [Benzoylaconitine]
−9.65

Next compound: COC[C@@]12CC[C@H](OC)[C@]34C(C([C@H](OC)[C@H]13)[C@]1(OC(C)=O)[C@H]3[C@@H](OC(=O)c5ccccc5)[C@](O)(C[C@H]34)[C@@H](OC)[C@@H]1O)N(C)C2 [Hypaconitine]
1.32

Next compound: COCC12CN(C)C3C4C(OC)C1C3(C(OC)CC2O)C1CC2(O)C(OC)C(O)C4(OC(C)=O)C1C2OC(=O)c1ccccc1 (stereo not shown) [Mesaconitine]
−9.89
